Value source: PubChem BioAssay AID598

protocol: proliferation blockers of H69AR lung cancer cells, primary screen, cell-based, human, 86K library (AID 598);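 also: multidrug resistant small cell line overexpressing MRP-1 efflux transporter; 100% = mean luminescence of untreated control wells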
conditionNotes: H69AR lung tumor viability, ATP luminescence, 72 h; at 10 µM; hits give low values
In all, about 85,000 compounds went through this assay and about 5,100 (6%) were called active. The list comes from a sample in which actives are over-represented; it also holds close analogues and randomly drawn compounds.
assayEndpoint: viability (%)
Response body: numeric value in %, unit text excluded.

COc1ccc(N2CCN(Cc3cc(=O)oc4ccc5ccccc5c34)CC2)cc1 has a reported viability of 71.9

Cn1c(=O)c2c(nc(N3CCCCCC3)n2CC(=O)c2ccc(Br)cc2)n(C)c1=O has a reported viability of 46.8

O=C(OCc1nnc(-c2ccccc2)o1)c1ccc2c(c1)C(=O)N(CCc1ccccc1)C2=O has a reported viability of 33.8

Cc1cc(C)nc(N2CCN(c3ncnc4c3oc3ccccc34)CC2)n1 has a reported viability of 103

O=C(COc1ccccc1)Nc1nonc1NC(=O)COc1ccccc1 has a reported viability of 93.3

CCn1c(C)nc2cc(C(=O)NNS(=O)(=O)c3ccc(C)cc3C)ccc21 has a reported viability of 95.5

O=C1NC(Nc2nc3ccccc3s2)(C(F)(F)F)C(=O)N1C1CCCCC1 (stereo not drawn) has a reported viability of 13.4

COC(=O)c1ccccc1NC(=O)Cn1nc(C(F)(F)F)c2c1CCC2 has a reported viability of 84.3

COc1ccc(-c2n[nH]c(C)c2-c2ccc(OC)c(OC)c2)c(O)c1 has a reported viability of 14.9

Cc1cccc(N(C(=O)c2ccc(CN3CCOCC3)o2)C(C(=O)NC2CCCCC2)c2ccc(F)cc2)c1 (stereo not drawn) has a reported viability of 103

CC(C)c1nc2oc3c(N4CCN(C)CC4)ncnc3c2c2c1CCC2 has a reported viability of 33.7

COc1cc(C)c(C(C)C)cc1S(=O)(=O)n1ccnc1 has a reported viability of 101

O=C(c1ccco1)N1CCN(C(=O)C2CCCN(S(=O)(=O)c3cccc4nsnc34)C2)CC1 (stereo not drawn) has a reported viability of 91.1

Cc1cc(C)c2[nH]c(=O)c(C(c3nnnn3Cc3ccc4c(c3)OCO4)N3CCCC3)cc2c1 (stereo not drawn) has a reported viability of 68.1

C=C(C)COc1ccc(-c2n[nH]c(C)c2-c2ccccc2)c(O)c1 has a reported viability of 95.5

COc1ccc(C)cc1S(=O)(=O)Nc1cccc(Cl)c1Cl has a reported viability of 97.3

Cc1cccc(NC(=O)CSc2nnc(NC(=O)CN3CCOCC3)s2)c1 has a reported viability of 79.3

COC(=O)c1cccc(N(C(=O)c2ccco2)C(C(=O)NC2CCCC2)c2ccco2)c1 (stereo not drawn) has a reported viability of 32.4

Cc1cccc(NC(=O)CN2C(=O)CNC2=O)c1 has a reported viability of 91.7

COc1cccc2cc(C(=O)N3CCN(C(=O)c4ccccc4)CC3)c(=O)oc12 has a reported viability of 89.3

CCN1CCN(c2ncnc3c2oc2nc(C)c4c(c23)CC(C)(C)OC4)CC1 has a reported viability of 81.8

COC(=O)NC1(C(F)(F)F)NC(=O)N(C2CCCCC2)C1=O (stereo not drawn) has a reported viability of 103

O=C(Nc1ccc(F)c(Cl)c1)C1CCN(S(=O)(=O)c2cccnc2)CC1 has a reported viability of 71.8

Cc1nc(NCCN)c(C#N)c2c1COC(C)(C)C2 has a reported viability of 85

Cc1ccc2cc(CCNC(=O)c3c(-c4ccccc4Cl)noc3C)c(=O)[nH]c2c1 has a reported viability of 86.2

COC(=O)COc1ccc2oc(=O)cc(C)c2c1 has a reported viability of 91.9

Cn1c(=O)c2c(nc(N3CCCCCC3)n2CC(O)COc2ccc(Cl)cc2)n(C)c1=O (stereo not drawn) has a reported viability of 28.2

O=C(Cn1c(=O)sc2ccccc21)Nc1nc2c(s1)CCCC2 has a reported viability of 63.2

O=C(Cn1nc(C(F)(F)F)c2c1CCC2)NCc1ccc(F)cc1 has a reported viability of 104

Cc1ccc(C)c(NC2=NCC(=O)N2c2ccc3c(c2)OCCO3)c1 has a reported viability of 100

O=C(c1ccc(Cl)cc1)c1ccc(OCC(O)CN2CCCCC2)cc1 (stereo not drawn) has a reported viability of 64.1

Cc1nnc(NC(=O)CCCOc2ccccc2)s1 has a reported viability of 93.8

CC(C)Cn1c(N)c(C(=O)NCc2cccs2)c2nc3ccccc3nc21 has a reported viability of 1.75

Cc1cc(SCC(=O)c2ccccc2)nc(SCC(=O)c2ccccc2)n1 has a reported viability of 72.1

C=CCn1c(N)c(C(=O)OCC(C)C)c2nc3ccccc3nc21 has a reported viability of 93.2

COc1cc(OC)c(-n2c(C)cc(C=O)c2C)cc1Cl has a reported viability of 104

O=S(=O)(Cc1cc(Sc2ccccc2)nc(-c2ccccc2)n1)c1ccccc1 has a reported viability of 84.3

CCCn1c(C)cc(C(=O)COC(=O)c2c(C)nn(-c3ccccc3)c2C)c1C has a reported viability of 100
